FYI, the data here is from patent US11661403B2.

IC50 overview
system: 8XTBD luciferase reporter (YAP) in HEK293T cells; test: YAP Reporter Assay; assay type: cell-based; settings: Homo sapiens, HEK-293T; HEK293T cells stably transfected with 8XTBD luciferase reporter and pRLTK; 24-hr incubation; top concentration 3 μM; read-out: Firefly Luciferase IC50

compound | property.name | data.value
CC(C)(C(N)=O)c1nnc(-c2ccccc2Nc2ccc(C(F)(F)F)cc2)o1 | IC50 | < 100 nM

**Query** Check the records and state IC50 for `CC(C)(O)c1nnc(-c2ccccc2Nc2ccc(C(F)(F)F)cc2)o1`
**Result** < 100 nM

**Query** Note IC50 for the compound shown: `CNC(=O)c1nnc(-c2ccccc2Nc2ccc(C(F)(F)F)cc2)o1`
**Result** < 100 nM

**Query** Quickly give me recorded IC50 for `CCOC(=O)c1nnc(-c2ccccc2Nc2ccc(C(F)(F)F)cc2)o1`
**Result** < 100 nM

----------
system: 8XTBD luciferase reporter (YAP) in HEK293T cells; experiment: YAP Reporter Assay; type: cell-based; conditions: Homo sapiens, HEK-293T; HEK293T cells stably transfected with 8XTBD luciferase reporter and pRLTK; 24-hr incubation; top concentration 3 μM; read-out: Firefly Luciferase IC50
pIC50: −log10 of the molar value.
property.name: pIC50

**Query** Given `NC(=O)c1nnc(-c2ccccc2Nc2ccc(C(F)(F)F)cc2)o1` , respond with its pIC50.
**Result** > 7.00

**Query** Determine its reported pIC50: `N#CC1(c2nnc(-c3ccccc3Nc3ccc(C(F)(F)F)cc3)o2)CC1`
**Result** > 7.00

**Query** Look up and report measured pIC50 for this entry: `FC(F)(F)c1ccc(Nc2ccccc2-c2nnc(-c3nn[nH]n3)o2)cc1`
**Result** 5.30 to 6.00

**Query** Retrieve pIC50 measured for `NC1(Cc2nnc(-c3ccccc3Nc3ccc(C(F)(F)F)cc3)o2)CC1` and print it.
**Result** 6.00 to 7.00

**Query** Return value of pIC50 for input `CC(C)(C#N)Cc1nnc(-c2ccccc2Nc2ccc(C(F)(F)F)cc2)o1` , no commentary.
**Result** 6.00 to 7.00

----------
tested on: 8XTBD luciferase reporter (YAP) in HEK293T cells; assay: YAP Reporter Assay; assay type: cell-based; conditions: Homo sapiens, HEK-293T; HEK293T cells stably transfected with 8XTBD luciferase reporter and pRLTK; 24-hr incubation; top concentration 3 μM; read-out: Firefly Luciferase IC50
property.name: IC50

compound | IC50
FC(F)(F)c1ccc(Nc2ccccc2-c2nnc(-c3cocn3)o2)cc1 | 100 to 1000 nM
OCc1nnc(-c2ccccc2Nc2ccc(C(F)(F)F)cc2)o1 | < 100 nM
C#CCC(O)c1nnc(-c2ccccc2Nc2ccc(C(F)(F)F)cc2)o1 (stereo not drawn) | < 100 nM
O=C(O)C1(c2nnc(-c3ccccc3Nc3ccc(C(F)(F)F)cc3)o2)CC1 | < 100 nM
OC1(c2nnc(-c3ccccc3Nc3ccc(C(F)(F)F)cc3)o2)COC1 | < 100 nM
CNc1nnc(-c2ccccc2Nc2ccc(C(F)(F)F)cc2)o1 | 100 to 1000 nM

Attention now turns to another entry.
**Query** Give IC50 for CNC(C)Cc1nnc(-c2ccccc2Nc2ccc(C(F)(F)F)cc2)o1 (stereo not drawn)
**Result** 1000 to 5000 nM

----------
test system: 8XTBD luciferase reporter (YAP) in HEK293T cells; assay: YAP Reporter Assay; type: cell-based; conditions: Homo sapiens, HEK-293T; HEK293T cells stably transfected with 8XTBD luciferase reporter and pRLTK; 24-hr incubation; top concentration 3 μM; read-out: Firefly Luciferase IC50
pIC50: −log10 of the molar value.
property.name: pIC50

compound | pIC50
CN(C)C(=O)C1(c2nnc(-c3ccccc3Nc3ccc(C(F)(F)F)cc3)o2)CC1 | 6.00 to 7.00

**Query** Identify the reported pIC50 for the following entry. FC(F)(F)c1ccc(Nc2ccccc2-c2nnc(C3CCCN3)o2)cc1 (stereo not drawn)
**Result** 6.00 to 7.00

**Query** Give the reported pIC50 for this compound. `OCCc1nnc(-c2ccccc2Nc2ccc(C(F)(F)F)cc2)o1`
**Result** > 7.00

**Query** Determine from records and report pIC50 for `CC(C)(C#N)c1nnc(-c2ccccc2Nc2ccc(C(F)(F)F)cc2)o1`
**Result** > 7.00

**Query** Specify pIC50 for CNCC(C)c1nnc(-c2ccccc2Nc2ccc(C(F)(F)F)cc2)o1 (stereo not drawn) and stop.
**Result** 6.00 to 7.00

**Query** Input `FC(F)(F)c1ccc(Nc2ccc(Br)cc2-c2nnc(C3CC3)o2)cc1` , output reported pIC50.
**Result** 6.00 to 7.00

----------
tested on: 8XTBD luciferase reporter (YAP) in HEK293T cells; test: YAP Reporter Assay; format: cell-based; conditions: Homo sapiens, HEK-293T; HEK293T cells stably transfected with 8XTBD luciferase reporter and pRLTK; 24-hr incubation; top concentration 3 μM; read-out: Firefly Luciferase IC50
pIC50: −log10 of the molar value.
Reported pIC50 values for a set of compounds

Some solved entries appear below for comparison.
compound | property.name | data.value
CON(C)C(=O)C(C)(C)c1nnc(-c2ccccc2Nc2ccc(C(F)(F)F)cc2)o1 | pIC50 | > 7.00
OC1(c2nnc(-c3ccccc3Nc3ccc(C(F)(F)F)cc3)o2)CCCC1 | pIC50 | > 7.00

**Query** Specify measured pIC50 for CC(O)(CCO)c1nnc(-c2ccccc2Nc2ccc(C(F)(F)F)cc2)o1 (stereo not drawn) .
**Result** > 7.00

**Query** Please look at this compound and report its pIC50: `CCc1nnc(-c2ccccc2Nc2ccc(C(F)(F)F)cc2)o1`
**Result** 6.00 to 7.00

**Query** Indicate its recorded pIC50; the compound in question is `C=Cc1nnc(-c2ccccc2Nc2ccc(C(F)(F)F)cc2)o1`
**Result** > 7.00

**Query** Kindly indicate its recorded pIC50. Item: `CON(C)C(=O)c1nnc(-c2ccccc2Nc2ccc(C(F)(F)F)cc2)o1`
**Result** 6.00 to 7.00

**Query** In one line, give reported pIC50 of the entry `CCOC(=O)CNc1nnc(-c2ccccc2Nc2ccc(C(F)(F)F)cc2)o1` .
**Result** 5.30 to 6.00

**Query** Answer with reported pIC50 of O=C1NC(c2nnc(-c3ccccc3Nc3ccc(C(F)(F)F)cc3)o2)CO1 (stereo not drawn)
**Result** > 7.00

----------
system: 8XTBD luciferase reporter (YAP) in HEK293T cells; experiment: YAP Reporter Assay; type: cell-based; conditions: Homo sapiens, HEK-293T; HEK293T cells stably transfected with 8XTBD luciferase reporter and pRLTK; 24-hr incubation; top concentration 3 μM; read-out: Firefly Luciferase IC50
pIC50: −log10 of the molar value.
property.name: pIC50

compound | pIC50
CC1(c2nnc(-c3ccccc3Nc3ccc(C(F)(F)F)cc3)o2)OCCO1 [Compound 86] | > 7.00
CS(=O)(=O)c1nnc(-c2ccccc2Nc2ccc(C(F)(F)F)cc2)o1 [Compound 71] | 6.00 to 7.00
O=c1[nH]c(-c2nnc(-c3ccccc3Nc3ccc(C(F)(F)F)cc3)o2)no1 [Compound 50] | 5.30 to 6.00
CC(C)(C)OC(=O)N1C(=O)OCC1c1nnc(-c2ccccc2Nc2ccc(C(F)(F)F)cc2)o1 (centres unmarked) [Compound 26] | > 7.00

**Query** For OC(c1nnc(-c2ccccc2Nc2ccc(C(F)(F)F)cc2)o1)C(F)F (centres unmarked) [Compound 60] , write its pIC50.
**Result** > 7.00

----------
tested on: 8XTBD luciferase reporter (YAP) in HEK293T cells; assay: YAP Reporter Assay; format: cell-based; conditions: Homo sapiens, HEK-293T; HEK293T cells stably transfected with 8XTBD luciferase reporter and pRLTK; 24-hr incubation; top concentration 3 μM; read-out: Firefly Luciferase IC50
property.name: IC50

Solved entries (count: 5):
molecule | IC50
FC(F)(F)c1ccc(Nc2ccccc2-c2nnco2)cc1 | 100 to 1000 nM
C#CC(O)Cc1nnc(-c2ccccc2Nc2ccc(C(F)(F)F)cc2)o1 (centres unmarked) | < 100 nM
OC(c1nnc(-c2ccccc2Nc2ccc(C(F)(F)F)cc2)o1)C(F)(F)F (centres unmarked) | < 100 nM
CC(C)N(C#N)CCc1nnc(-c2ccccc2Nc2ccc(C(F)(F)F)cc2)o1 | 100 to 1000 nM
CC(CO)NC(=O)c1nnc(-c2ccccc2Nc2ccc(C(F)(F)F)cc2)o1 (centres unmarked) | 100 to 1000 nM

**Query** Quick one: give measured IC50 for NC(CO)c1nnc(-c2ccccc2Nc2ccc(C(F)(F)F)cc2)o1 (centres unmarked)
**Result** 100 to 1000 nM

**Query** Given `CCN(C#N)CCc1nnc(-c2ccccc2Nc2ccc(C(F)(F)F)cc2)o1` , respond with its IC50.
**Result** < 100 nM

**Query** Hello, please tell me recorded IC50 for this one: `CCOC(=O)Cc1nnc(-c2ccccc2Nc2ccc(C(F)(F)F)cc2)o1`
**Result** 100 to 1000 nM

**Query** Output measured IC50 for this item: `CCNCc1nnc(-c2ccccc2Nc2ccc(C(F)(F)F)cc2)o1`
**Result** 100 to 1000 nM

**Query** Output measured IC50 for this item: OC(CBr)c1nnc(-c2ccccc2Nc2ccc(C(F)(F)F)cc2)o1 (centres unmarked)
**Result** < 100 nM

**Query** Consider the molecule `CNC1(c2nnc(-c3ccccc3Nc3ccc(C(F)(F)F)cc3)o2)CC1` and give its recorded IC50.
**Result** 100 to 1000 nM
